- Assayed Target: PTP1B (Homo sapiens, UniProt P18031)
- Construct: purchased MedChemExpress LLC
- Sequence (P18031 whole entry): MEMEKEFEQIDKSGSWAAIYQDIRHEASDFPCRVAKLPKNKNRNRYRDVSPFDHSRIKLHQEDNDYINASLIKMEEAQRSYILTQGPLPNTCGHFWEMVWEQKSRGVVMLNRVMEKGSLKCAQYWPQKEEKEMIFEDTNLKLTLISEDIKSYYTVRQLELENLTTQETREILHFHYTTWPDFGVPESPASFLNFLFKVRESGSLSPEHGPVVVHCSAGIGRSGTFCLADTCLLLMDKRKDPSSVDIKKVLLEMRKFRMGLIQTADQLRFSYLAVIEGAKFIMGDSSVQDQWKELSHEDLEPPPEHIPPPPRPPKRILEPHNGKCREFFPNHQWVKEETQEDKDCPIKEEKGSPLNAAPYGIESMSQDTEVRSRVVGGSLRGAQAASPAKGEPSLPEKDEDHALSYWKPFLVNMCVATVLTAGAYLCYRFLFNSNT
- Method: PTP1B inhibitory assay (pNPP hydrolysis)
- Type: biochemical
- Experimental Conditions: percent inhibition at a concentration of 100 μM
Quick reference for inhibition at 100 µM among some molecules
Field: numeric (%). Do not append units.

>>> val("CCCC[C@@H](CCCCCCCCCC(=O)OC)O[C@@H]1O[C@H](CO)[C@@H](O)[C@H](O)[C@H]1O[C@@H]1O[C@@H](C)[C@H](O[C@@H]2O[C@@H](C)[C@H](O[C@@H]3O[C@@H](C)[C@H](O)[C@@H](O[C@@H]4O[C@H](CO)[C@@H](O)[C@H](O)[C@H]4O)[C@H]3O)[C@@H](O)[C@H]2O)[C@@H](O)[C@H]1O")
5.41

So, CCCC[C@@H](CCCCCCCCCC(=O)OC)O[C@@H]1O[C@H](C)[C@H](O)[C@H](O)[C@H]1O[C@@H]1O[C@H](CO)[C@@H](O)[C@H](O[C@@H]2O[C@H](CO)[C@@H](O)[C@H](O)[C@H]2O)[C@H]1O[C@@H]1O[C@@H](C)[C@H](O)[C@@H](O)[C@H]1O ? Its inhibition at 100 µM was 15.9

So, C[C@H]1[C@H](C)CC[C@]2(C(=O)O)CC[C@]3(C)C(=CC[C@@H]4[C@@]5(C)CC[C@H](O)C(C)(C)[C@@H]5CC[C@]43C)[C@H]12 [Ursolic acid, ursolic acid, reference compound] ? Its inhibition at 100 µM was 90.4

From: paper PMC12562854
